Recorded LD50 values for a group of compounds are listed next.
ASSAY PROTOCOL: in vivo
ASSAY CONDITIONS: mouse, iv, male ddy mice, caudal vein injection, '60<' means greater than 60

>  <COMPOUND>
COC(=O)C1=C(C)NC(C)=C(C(=O)OCC/C=C\c2ccc3ccccc3c2)C1c1cccc([N+](=O)[O-])c1 (stereo not drawn)

>  <RESULT QUALIFIER>
>

>  <LD50 / mg/kg>
75

$$$$
>  <COMPOUND>
COC(=O)C1=C(C)NC(C)=C(C(=O)OCCC=Cc2ccc(SC)cc2)C1c1cccc([N+](=O)[O-])c1 (stereo not drawn)

>  <RESULT QUALIFIER>
=

>  <LD50 / mg/kg>
50

$$$$
>  <COMPOUND>
COC(=O)C1=C(C)NC(C)=C(C(=O)OCCC=Cc2ccc(C#N)cc2)C1c1cccc([N+](=O)[O-])c1 (stereo not drawn)

>  <RESULT QUALIFIER>
=

>  <LD50 / mg/kg>
45

$$$$
>  <COMPOUND>
COC(=O)C1=C(C)NC(C)=C(C(=O)OCCN(C)Cc2ccccc2)C1c1cccc([N+](=O)[O-])c1.Cl (stereo not drawn) [B, reference compound]

>  <RESULT QUALIFIER>
=

>  <LD50 / mg/kg>
9.7

$$$$
>  <COMPOUND>
COC(=O)C1=C(C)NC(C)=C(C(=O)OCC=Cc2ccco2)C1c1cccc([N+](=O)[O-])c1 (stereo not drawn)

>  <RESULT QUALIFIER>
>

>  <LD50 / mg/kg>
60

$$$$
>  <COMPOUND>
COC(=O)C1=C(C)NC(C)=C(C(=O)OCC#Cc2ccccc2)C1c1cccc([N+](=O)[O-])c1 (stereo not drawn)

>  <RESULT QUALIFIER>
>

>  <LD50 / mg/kg>
60

$$$$
